- System: 855422-203-R-J1-PDC complex spheroids, viability
- assay info: Anticancer human tumor 855422-203-R-J1-PDC patient-derived bladder carcinoma cell line growth inhibition [CLK]; active = viability on the fitted dose curve at most 10% of control; inactive = the rest
- experimental conditions: second compound 1 µM; first compound 0.0316 µM
Classes used: YES = active, NO = inactive

{"columns": ["molecule", "cat"],
 "data": [
  ["COc1ccc([C@@H](O)c2cc(-c3ncnc4cc(N5CCOCC5)ccc34)c(F)cc2Cl)nn1 + CN1CCN(c2cc(C(=O)Nc3cc4cc(-c5cnn(C)c5)ccc4cn3)ccn2)CC1", "YES"],
  ["Cn1ncnc1[C@H]1c2n[nH]c(=O)c3cc(F)cc(c23)N[C@@H]1c1ccc(F)cc1 + CNC(=O)c1ccc(Nc2nc(OC3CCCC3)c3c(-c4ccc5nc(C)oc5c4)c[nH]c3n2)c(OC)c1", "NO"],
  ["COc1cccc2c1C(=O)c1c(O)c3c(c(O)c1C2=O)CC(O)(C(=O)CO)CC3OC1CC(N)C(O)C(C)O1 (stereo not drawn) + CNC(=O)c1ccc(Nc2nc(OC3CCCC3)c3c(-c4ccc5nc(C)oc5c4)c[nH]c3n2)c(OC)c1", "YES"]
]}

---

- Tested on: 855422-203-R-J1-PDC complex spheroids, viability
- assay info: Anticancer human tumor 855422-203-R-J1-PDC cell line growth inhibition [CLK];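 note: spheroids exposed to drugs for seven days before readout; 100% = DMSO vehicle control wells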
- experimental conditions: second compound 0.316 µM; first compound 3.16 µM; hits give low values
As shown below, each of these compounds has a reported viability, T/C value.

{"columns": ["compound", "viability, T/C [%]"],
 "data": [
  ["C=C(F)C(=O)N1CCN(c2nc(OCC3CCCN3C)nc3c2CCN(c2cccc4cccc(Cl)c24)C3)CC1CC#N (stereo not given) + CNC(=O)c1ccc(Nc2nc(OC3CCCC3)c3c(-c4ccc5nc(C)oc5c4)c[nH]c3n2)c(OC)c1", 10.1],
  ["CCCS(=O)(=O)Nc1ccc(F)c(C(=O)c2c[nH]c3ncc(-c4ccc(Cl)cc4)cc23)c1F + CN1CCN(c2cc(C(=O)Nc3cc4cc(-c5cnn(C)c5)ccc4cn3)ccn2)CC1", 6.35],
  ["C=C(F)C(=O)N1CCN(c2nc(OCC3CCCN3C)nc3c2CCN(c2cccc4cccc(Cl)c24)C3)CC1CC#N (stereo not given) + CN1CCN(c2cc(C(=O)Nc3cc4cc(-c5cnn(C)c5)ccc4cn3)ccn2)CC1", 4.45],
  ["CC(=O)O[C@H]1C(=O)[C@@]2(C)[C@H]([C@H](OC(=O)c3ccccc3)[C@]3(O)C[C@H](OC(=O)[C@H](O)[C@@H](NC(=O)c4ccccc4)c4ccccc4)C(C)=C1C3(C)C)[C@]1(OC(C)=O)CO[C@@H]1C[C@@H]2O + CN1CCN(c2cc(C(=O)Nc3cc4cc(-c5cnn(C)c5)ccc4cn3)ccn2)CC1", 4.5],
  ["Nc1ccccc1NC(=O)c1ccc(CNC(=O)OCc2cccnc2)cc1 + CN1CCN(c2cc(C(=O)Nc3cc4cc(-c5cnn(C)c5)ccc4cn3)ccn2)CC1", 0.28]
]}

---

- Test system: 855422-203-R-J1-PDC complex spheroids, viability
- assay info: Anticancer human tumor 855422-203-R-J1-PDC cell line growth inhibition [CLK];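 note: spheroids exposed to drugs for seven days before readout; 100% = DMSO vehicle control wells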
- experimental conditions: second compound 0.0316 µM; first compound 3.16 µM; hits give low values
As shown below, each of these molecules has a reported viability, T/C value.

{"columns": ["molecule", "viability, T/C (%)"],
 "data": [
  ["O=c1[nH]cc(F)c(=O)[nH]1 + CN1CCN(c2cc(C(=O)Nc3cc4cc(-c5cnn(C)c5)ccc4cn3)ccn2)CC1", 56.9],
  ["CC1(C)CCC(CN2CCN(c3ccc(C(=O)NS(=O)(=O)c4ccc(NCC5CCOCC5)c([N+](=O)[O-])c4)c(Oc4cnc5[nH]ccc5c4)c3)CC2)=C(c2ccc(Cl)cc2)C1 + CNC(=O)c1ccc(Nc2nc(OC3CCCC3)c3c(-c4ccc5nc(C)oc5c4)c[nH]c3n2)c(OC)c1", 173],
  ["CC1COCCN1c1cc(C2(S(C)(=N)=O)CC2)nc(-c2ccnc3[nH]ccc23)n1 (centres undefined) + CN1CCN(c2cc(C(=O)Nc3cc4cc(-c5cnn(C)c5)ccc4cn3)ccn2)CC1", 32],
  ["CCCS(=O)(=O)Nc1ccc(F)c(C(=O)c2c[nH]c3ncc(-c4ccc(Cl)cc4)cc23)c1F + CN1CCN(c2cc(C(=O)Nc3cc4cc(-c5cnn(C)c5)ccc4cn3)ccn2)CC1", 76.5],
  ["O=C(c1cc(Cc2n[nH]c(=O)c3ccccc23)ccc1F)N1CCN(C(=O)C2CC2)CC1 + CNC(=O)c1ccc(Nc2nc(OC3CCCC3)c3c(-c4ccc5nc(C)oc5c4)c[nH]c3n2)c(OC)c1", 112],
  ["CC(=O)O[C@H]1C(=O)[C@@]2(C)[C@H]([C@H](OC(=O)c3ccccc3)[C@]3(O)C[C@H](OC(=O)[C@H](O)[C@@H](NC(=O)c4ccccc4)c4ccccc4)C(C)=C1C3(C)C)[C@]1(OC(C)=O)CO[C@@H]1C[C@@H]2O + CNC(=O)c1ccc(Nc2nc(OC3CCCC3)c3c(-c4ccc5nc(C)oc5c4)c[nH]c3n2)c(OC)c1", 8.71],
  ["CC1(C)CCC(CN2CCN(c3ccc(C(=O)NS(=O)(=O)c4ccc(NCC5CCOCC5)c([N+](=O)[O-])c4)c(Oc4cnc5[nH]ccc5c4)c3)CC2)=C(c2ccc(Cl)cc2)C1 + CN1CCN(c2cc(C(=O)Nc3cc4cc(-c5cnn(C)c5)ccc4cn3)ccn2)CC1", 137],
  ["O=C(c1cc(Cc2n[nH]c(=O)c3ccccc23)ccc1F)N1CCN(C(=O)C2CC2)CC1 + CN1CCN(c2cc(C(=O)Nc3cc4cc(-c5cnn(C)c5)ccc4cn3)ccn2)CC1", 106],
  ["Nc1ccn(C2OC(CO)C(O)C2(F)F)c(=O)n1 (centres undefined) + CN1CCN(c2cc(C(=O)Nc3cc4cc(-c5cnn(C)c5)ccc4cn3)ccn2)CC1", 9.09],
  ["COC1C=CCC(C)C(C)S(=O)(=O)NC(=O)c2ccc3c(c2)N(CC2CCC21)CC1(CCCc2cc(Cl)ccc21)CO3 (centres undefined) + CN1CCN(c2cc(C(=O)Nc3cc4cc(-c5cnn(C)c5)ccc4cn3)ccn2)CC1", 110],
  ["C=CC(=O)N1CCN(c2nc(=O)n(-c3c(C)ccnc3C(C)C)c3nc(-c4c(O)cccc4F)c(F)cc23)C(C)C1 (centres undefined) + CNC(=O)c1ccc(Nc2nc(OC3CCCC3)c3c(-c4ccc5nc(C)oc5c4)c[nH]c3n2)c(OC)c1", 179],
  ["CC(Nc1ccc2c(c1)OCCn1cc(N3C(=O)OCC3C(F)F)nc1-2)C(N)=O (centres undefined) + CNC(=O)c1ccc(Nc2nc(OC3CCCC3)c3c(-c4ccc5nc(C)oc5c4)c[nH]c3n2)c(OC)c1", 19.7],
  ["COC1C=CCC(C)C(C)S(=O)(=O)NC(=O)c2ccc3c(c2)N(CC2CCC21)CC1(CCCc2cc(Cl)ccc21)CO3 (centres undefined) + CNC(=O)c1ccc(Nc2nc(OC3CCCC3)c3c(-c4ccc5nc(C)oc5c4)c[nH]c3n2)c(OC)c1", 151],
  ["COc1cccc2c1C(=O)c1c(O)c3c(c(O)c1C2=O)CC(O)(C(=O)CO)CC3OC1CC(N)C(O)C(C)O1 (centres undefined) + CNC(=O)c1ccc(Nc2nc(OC3CCCC3)c3c(-c4ccc5nc(C)oc5c4)c[nH]c3n2)c(OC)c1", 0.45],
  ["C=CC(=O)N1CCN(c2nc(=O)n(-c3c(C)ccnc3C(C)C)c3nc(-c4c(O)cccc4F)c(F)cc23)C(C)C1 (centres undefined) + CN1CCN(c2cc(C(=O)Nc3cc4cc(-c5cnn(C)c5)ccc4cn3)ccn2)CC1", 169],
  ["CC(CO)NC(=O)c1cc(-c2ccc(Cl)cc2)nn(-c2cnn(C)c2)c1=O (centres undefined) + CN1CCN(c2cc(C(=O)Nc3cc4cc(-c5cnn(C)c5)ccc4cn3)ccn2)CC1", 101],
  ["COc1cccc2c1C(=O)c1c(O)c3c(c(O)c1C2=O)CC(O)(C(=O)CO)CC3OC1CC(N)C(O)C(C)O1 (centres undefined) + CN1CCN(c2cc(C(=O)Nc3cc4cc(-c5cnn(C)c5)ccc4cn3)ccn2)CC1", 0.59],
  ["CCCS(=O)(=O)Nc1ccc(F)c(C(=O)c2c[nH]c3ncc(-c4ccc(Cl)cc4)cc23)c1F + CNC(=O)c1ccc(Nc2nc(OC3CCCC3)c3c(-c4ccc5nc(C)oc5c4)c[nH]c3n2)c(OC)c1", 114],
  ["C#Cc1c(F)ccc2cc(O)cc(-c3ncc4c(N5CC6CCC(C5)N6)nc(OCC56CCCN5CC(F)C6)nc4c3F)c12 (centres undefined) + CNC(=O)c1ccc(Nc2nc(OC3CCCC3)c3c(-c4ccc5nc(C)oc5c4)c[nH]c3n2)c(OC)c1", 132]
]}
